Target: EGFR (A767_dupASV) expressing Ba/F3 stable cell line (Homo sapiens, UniProt P00533, DUP767-769, cells depend on it)
Sequence (P00533 with tags, fused parts or gaps DUP767-769): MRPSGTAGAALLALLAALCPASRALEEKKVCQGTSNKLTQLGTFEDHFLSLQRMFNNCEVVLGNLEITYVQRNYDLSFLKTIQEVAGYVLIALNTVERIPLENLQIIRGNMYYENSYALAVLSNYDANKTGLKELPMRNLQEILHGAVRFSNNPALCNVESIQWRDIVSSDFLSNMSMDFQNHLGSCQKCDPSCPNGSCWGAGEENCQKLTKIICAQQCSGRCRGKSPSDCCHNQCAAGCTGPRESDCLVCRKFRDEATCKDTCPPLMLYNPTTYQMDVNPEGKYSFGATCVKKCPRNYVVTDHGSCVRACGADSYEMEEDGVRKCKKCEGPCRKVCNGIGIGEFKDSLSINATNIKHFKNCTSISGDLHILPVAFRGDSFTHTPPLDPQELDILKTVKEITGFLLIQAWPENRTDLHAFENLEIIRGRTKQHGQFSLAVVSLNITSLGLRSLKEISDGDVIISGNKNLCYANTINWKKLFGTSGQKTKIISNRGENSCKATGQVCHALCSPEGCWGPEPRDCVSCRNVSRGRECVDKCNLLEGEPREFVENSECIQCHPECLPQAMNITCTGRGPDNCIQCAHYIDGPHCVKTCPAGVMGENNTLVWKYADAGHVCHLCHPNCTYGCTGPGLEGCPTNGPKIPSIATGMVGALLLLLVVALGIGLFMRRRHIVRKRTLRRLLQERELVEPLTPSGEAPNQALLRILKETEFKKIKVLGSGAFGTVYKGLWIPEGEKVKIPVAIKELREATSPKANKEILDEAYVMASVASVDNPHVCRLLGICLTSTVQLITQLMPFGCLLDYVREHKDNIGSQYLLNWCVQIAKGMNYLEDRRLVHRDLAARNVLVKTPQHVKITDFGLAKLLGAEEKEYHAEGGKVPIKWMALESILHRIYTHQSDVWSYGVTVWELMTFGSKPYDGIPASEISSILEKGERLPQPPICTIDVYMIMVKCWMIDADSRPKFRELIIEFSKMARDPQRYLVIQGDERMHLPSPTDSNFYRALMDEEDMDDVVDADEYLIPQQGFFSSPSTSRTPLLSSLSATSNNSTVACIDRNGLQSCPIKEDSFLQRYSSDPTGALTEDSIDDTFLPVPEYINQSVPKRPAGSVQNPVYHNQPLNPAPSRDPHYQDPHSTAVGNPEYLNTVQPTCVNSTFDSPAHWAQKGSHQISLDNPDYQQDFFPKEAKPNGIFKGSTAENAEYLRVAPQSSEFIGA
Test: Cellular proliferation (Alamar Blue) assay, EGFR A767_dupASV Ba/F3
Format: cell-based
Conditions: EGFR A767_dupASV Ba/F3, 72 hr, read-out: A767 IC50
Where a name gives a salt, the structure may show the parent alone.
test_readout: GI50 (nM)

(P) COc1ncccc1Nc1ncc2c(n1)N(c1cccc(NC(=O)/C=C/CN(C)C)c1)C(=O)N(Cc1ccccc1)C2 [Compound 103, trifluoroacetate salt]
(Q) CN(C)C/C=C/C(=O)Nc1cccc(N2C(=O)N(c3ccccc3)Cc3cnc(Nc4cn(C)nc4Cl)nc32)c1
(R) CC(C)n1cc(Nc2ncc3c(n2)N(c2cccc(NC(=O)/C=C/CN(C)C)c2)C(=O)N(Cc2ccccc2)C3)cn1
(S) CN(C)C/C=C/C(=O)Nc1cccc(N2C(=O)N(Cc3ccccc3)Cc3cnc(Nc4cn(C)nc4Cl)cc32)c1
(T) CN(C)C/C=C/C(=O)Nc1cccc(N2C(=O)N(Cc3ccccc3)Cc3cnc(Nc4ccc(N5CCN(C)CC5)nc4)nc32)c1
Exercise: List these items ordered by GI50, big to small. Give your ranking as a list of the labels in the requested order.
Solution: T, S, P, R, Q
(T: 3280 nM, S: 809 nM, P: 269 nM, R: 103 nM, Q: 12 nM)

---

Molecular target: EGFR(D770_N771insSVD) expressing Ba/F3 stable cell line (Homo sapiens, UniProt P00533, DUP768-770, cells depend on it)
Sequence (P00533 with tags, fused parts or gaps DUP768-770): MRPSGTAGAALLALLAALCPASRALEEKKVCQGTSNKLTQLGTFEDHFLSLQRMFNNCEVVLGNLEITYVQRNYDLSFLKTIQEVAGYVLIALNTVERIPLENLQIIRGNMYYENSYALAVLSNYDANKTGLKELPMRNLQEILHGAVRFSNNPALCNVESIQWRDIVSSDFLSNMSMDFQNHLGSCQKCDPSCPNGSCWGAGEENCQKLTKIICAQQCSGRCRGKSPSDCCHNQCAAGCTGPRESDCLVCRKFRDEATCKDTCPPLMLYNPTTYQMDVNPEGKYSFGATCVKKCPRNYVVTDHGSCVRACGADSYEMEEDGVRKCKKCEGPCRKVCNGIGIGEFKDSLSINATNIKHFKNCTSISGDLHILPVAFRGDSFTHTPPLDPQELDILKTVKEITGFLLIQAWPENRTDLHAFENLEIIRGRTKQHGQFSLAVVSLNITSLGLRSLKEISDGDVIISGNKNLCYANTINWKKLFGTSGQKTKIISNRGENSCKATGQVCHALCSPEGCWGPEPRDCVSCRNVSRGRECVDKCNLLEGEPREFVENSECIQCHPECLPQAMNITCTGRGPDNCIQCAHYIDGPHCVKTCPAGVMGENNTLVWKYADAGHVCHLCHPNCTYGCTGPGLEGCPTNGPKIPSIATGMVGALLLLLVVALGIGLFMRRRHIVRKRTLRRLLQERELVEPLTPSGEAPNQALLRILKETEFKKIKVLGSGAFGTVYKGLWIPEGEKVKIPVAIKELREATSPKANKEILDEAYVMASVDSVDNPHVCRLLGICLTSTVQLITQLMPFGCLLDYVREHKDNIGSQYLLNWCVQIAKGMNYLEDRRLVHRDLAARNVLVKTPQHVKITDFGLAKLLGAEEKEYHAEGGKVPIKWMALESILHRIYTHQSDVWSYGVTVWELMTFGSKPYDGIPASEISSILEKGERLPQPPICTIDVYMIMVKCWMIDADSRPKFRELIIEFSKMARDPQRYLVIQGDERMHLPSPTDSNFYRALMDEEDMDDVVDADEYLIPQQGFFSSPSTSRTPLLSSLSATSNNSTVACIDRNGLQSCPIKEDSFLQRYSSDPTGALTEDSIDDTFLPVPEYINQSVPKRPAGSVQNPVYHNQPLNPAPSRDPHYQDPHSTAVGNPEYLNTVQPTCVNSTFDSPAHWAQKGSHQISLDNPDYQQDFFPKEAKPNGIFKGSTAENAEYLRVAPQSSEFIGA
Assay: Cellular proliferation (Alamar Blue) assay, EGFR D770_N771insSVD Ba/F3
Assay type: cell-based
Details: EGFR D770_N771insSVD Ba/F3, 72 hr, read-out: D770 IC50
Counter-ions that a name gives are not always drawn.
test_readout: GI50 (nM)

(I) CN(C)C/C=C/C(=O)Nc1cccc(N2C(=O)N(Cc3ccccc3)Cc3cnc(Nc4cn(C5CCN(C)CC5)nc4Cl)nc32)c1 [Compound 65, trifluoroacetate salt]
(II) CN(C)C/C=C/C(=O)Nc1cccc(N2C(=O)N(Cc3ccccc3)Cc3cnc(Nc4cn(C)nc4C(F)(F)F)nc32)c1 [Compound 95]
Exercise: Just curious, which one has the larger GI50 reading, I or II ? Choose, then provide that item's label.
Solution: I
(I: 1090 nM, II: 97 nM)

(A) CN(C)C/C=C/C(=O)Nc1cccc(N2C(=O)N(Cc3ccccc3)Cc3cnc(Nc4cnc5c(cnn5C)c4)nc32)c1 [Compound 53]
(B) C=CC(=O)Nc1ccc(F)c(N2C(=O)N(c3ccccc3)Cc3cnc(Nc4cn(C)nc4Cl)nc32)c1 [Compound 128, trifluoroacetate salt]
Exercise: Which entry has a larger number for GI50, A or B ? Write down the label attached to your selection.
Solution: A
(A: 1050 nM, B: 12 nM)

(I) C=CC(=O)Nc1cccc(N2C(=O)N(c3ccccc3)Cc3cnc(Nc4cn(C5CCNCC5)nc4Cl)nc32)c1 [Compound 132]
(II) C=CC(=O)Nc1cccc(N2C(=O)N(c3ccccc3)Cc3cnc(Nc4ccc(N5CCC(N(C)C)CC5)nc4)nc32)c1 [Compound 112]
(III) C=CC(=O)Nc1cccc(N2C(=O)N(Cc3ccccc3)Cc3cnc(Nc4cnn(C)c4C)nc32)c1 [Compound 4]
(IV) Cc1nn(CC(F)(F)F)cc1Nc1ncc2c(n1)N(c1cccc(NC(=O)/C=C/CN(C)C)c1)C(=O)N(Cc1ccccc1)C2 [Compound 8]
Exercise: Ascending by GI50, please: list the molecules accordingly. Please express your ranking as an ordered list of the labels.
Solution: III, IV, II, I

(a) C=CC(=O)Nc1cccc(N2C(=O)N(c3ccccc3)Cc3cnc(Nc4cccc5c4CCN5C4CCN(C)CC4)nc32)c1 [Compound 118]
(b) CN(C)C/C=C/C(=O)Nc1cccc(N2C(=O)N(Cc3ccccc3)Cc3cnc(Nc4cnn(CCO)c4)nc32)c1 [Compound 14]
Exercise: // returns a or b , whichever has the lower GI50 Kindly state the label of the option you pick.
Solution: a

Data origin, for the record: patent US20230027026A1
